Answer each item with its documented peptide exchange yield.
target: T1, HLA-A*02:01 (human); assay: UV-ligand exchange + anti-b2m ELISA; peptide exchange yield grade (+ >=10%, ++ >=20%, +++ >=50, ++++ >=75%)
T1 construct: MHC monomers first loaded with a UV-sensitive peptide (not identified) that is cleaved by UV light and exchanged for the test peptide; captured on streptavidin plates, detected with anti-β2m; also called peptide-receptive MHC molecules; MHC class I

[[record]]
binder = "FLSPPLPSV (source genes BCKDHA, TMEM91) [FLSPPLPSV (SEQ ID NO: 22)]"
readoutlabel = "peptide exchange yield"
experimentalresult = "50 to 75%"

[[record]]
binder = "QLFYTKIFL (source gene PLOD1) [QLFYTKIFL (SEQ ID NO: 30)]"
readoutlabel = "peptide exchange yield"
experimentalresult = "20 to 50%"

[[record]]
binder = "SLFGKKYIL (source gene FHL2) [SLFGKKYIL (SEQ ID NO: 36)]"
readoutlabel = "peptide exchange yield"
experimentalresult = "20 to 50%"

[[record]]
binder = "ALIVSLPYL (source gene SLC17A3; also called SLC17A3-001) [ALIVSLPYL (SEQ ID NO: 1)]"
readoutlabel = "peptide exchange yield"
experimentalresult = "50 to 75%"

[[record]]
binder = "FTLGTTVFL (source gene NDUFC1) [FTLGTTVFL (SEQ ID NO: 24)]"
readoutlabel = "peptide exchange yield"
experimentalresult = "50 to 75%"


I need peptide exchange yield for every entry listed below, if you could help.
1. SLFDWNVKL (source gene UBE2QL1) [SLFDWNVKL (SEQ ID NO: 113)]
2. GLASFKSFL (source gene RGS5) [GLASFKSFL (SEQ ID NO: 8)]
3. VLMDLKALLL (source gene DDX41) [VLMDLKALLL (SEQ ID NO: 107)]
4. ALADIVWRA (source gene FAM188B) [ALADIVWRA (SEQ ID NO: 79)]

1: 50 to 75%; 2: 20 to 50%; 3: 50 to 75%; 4: 50 to 75%
